Data provenance is the supplement of paper PMC10307832.

Test system: NCI-H1355
PROTOCOL_DETAILS: relative viability (nuclei count vs DMSO), 5 days (fraction); higher = more cells survive
APPLIED_CONDITIONS: first compound 2.53 µM
Provide the recorded relative viability for the entries that follow.
Give your answer as a number; write no unit.

# input Jot down relative viability (NCI-H1355) of C=C1C(=O)O[C@@H](CCCCCCCC)[C@@H]1C(=O)O [C-75] + CS(=O)(=O)CCNCc1ccc(-c2ccc3ncnc(Nc4ccc(OCc5cccc(F)c5)c(Cl)c4)c3c2)o1 [Lapatinib] (partner 2 µM) .
# output 0.943

# input Jot down relative viability (NCI-H1355) of C=C1C(=O)O[C@@H](CCCCCCCC)[C@@H]1C(=O)O [C-75] + CC1(C)CCC(c2ccc(Cl)cc2)=C(CN2CCN(c3ccc(C(=O)NS(=O)(=O)c4ccc(N[C@H](CCN5CCOCC5)CSc5ccccc5)c(S(=O)(=O)C(F)(F)F)c4)cc3)CC2)C1 [Navitoclax] (partner 0.5 µM) .
# output 0.952

# input Jot down relative viability (NCI-H1355) of C=C1C(=O)O[C@@H](CCCCCCCC)[C@@H]1C(=O)O [C-75] + CS(=O)(=O)N1CCN(Cc2cc3nc(-c4cccc5[nH]ncc45)nc(N4CCOCC4)c3s2)CC1 [Pictilisib] (partner 1 µM) .
# output 0.507

# input Jot down relative viability (NCI-H1355) of C=C1C(=O)O[C@@H](CCCCCCCC)[C@@H]1C(=O)O [C-75] + COc1cccc2cc(-c3nc([C@H]4CC[C@H](C(=O)O)CC4)n4ncnc(N)c34)[nH]c12 [OSI-027] (partner 0.5 µM) .
# output 0.348

---

Provide the recorded relative viability for the entries that follow.
System: HCC-44
PROTOCOL_DETAILS: relative viability (nuclei count vs DMSO), 5 days (fraction); higher = more cells survive
APPLIED_CONDITIONS: first compound 8 µM

# input Retrieve relative viability measured for C=C1C(=O)O[C@@H](CCCCCCCC)[C@@H]1C(=O)O [C-75] + Nc1ncn([C@H]2C[C@H](O)[C@@H](CO)O2)c(=O)n1 [Decitabine] (partner 2 µM) and print it.
# output 0.903

# input Retrieve relative viability measured for C=C1C(=O)O[C@@H](CCCCCCCC)[C@@H]1C(=O)O [C-75] + CC(=O)c1c(C)c2cnc(Nc3ccc(N4CCNCC4)cn3)nc2n(C2CCCC2)c1=O [Palbociclib] (partner 0.5 µM) and print it.
# output 0.996

# input Retrieve relative viability measured for C=C1C(=O)O[C@@H](CCCCCCCC)[C@@H]1C(=O)O [C-75] + O=C(CCCCCCC(=O)Nc1ccccc1)NO [Vorinostat] (partner 1 µM) and print it.
# output 1.07

# input Retrieve relative viability measured for C=C1C(=O)O[C@@H](CCCCCCCC)[C@@H]1C(=O)O [C-75] + CC(C)C[C@H](NC(=O)[C@H](Cc1ccccc1)NC(=O)c1cnccn1)B(O)O [Bortezomib] (partner 0.002 µM) and print it.
# output 0.89

---

Provide the recorded relative viability for the entries that follow.
Tested on: NCI-H2347
PROTOCOL_DETAILS: relative viability (nuclei count vs DMSO), 5 days (fraction); higher = more cells survive
APPLIED_CONDITIONS: first compound 0.005 µM
Give your answer as a number; write no unit.

# input Retrieve relative viability measured for CC1(C)CCC(c2ccc(Cl)cc2)=C(CN2CCN(c3ccc(C(=O)NS(=O)(=O)c4ccc(N[C@H](CCN5CCOCC5)CSc5ccccc5)c(S(=O)(=O)C(F)(F)F)c4)cc3)CC2)C1 [Navitoclax] + CC(=O)c1c(C)c2cnc(Nc3ccc(N4CCNCC4)cn3)nc2n(C2CCCC2)c1=O [Palbociclib] (partner 0.5 µM) and print it.
# output 0.468

# input Retrieve relative viability measured for CC1(C)CCC(c2ccc(Cl)cc2)=C(CN2CCN(c3ccc(C(=O)NS(=O)(=O)c4ccc(N[C@H](CCN5CCOCC5)CSc5ccccc5)c(S(=O)(=O)C(F)(F)F)c4)cc3)CC2)C1 [Navitoclax] + Cc1nc(Nc2ncc(C(=O)Nc3c(C)cccc3Cl)s2)cc(N2CCN(CCO)CC2)n1 [Dasatinib] (partner 0.075 µM) and print it.
# output 0.328

# input Retrieve relative viability measured for CC1(C)CCC(c2ccc(Cl)cc2)=C(CN2CCN(c3ccc(C(=O)NS(=O)(=O)c4ccc(N[C@H](CCN5CCOCC5)CSc5ccccc5)c(S(=O)(=O)C(F)(F)F)c4)cc3)CC2)C1 [Navitoclax] + COc1cc2c(Oc3ccc(NC(=O)C4(C(=O)Nc5ccc(F)cc5)CC4)cc3F)ccnc2cc1OCCCN1CCOCC1 [Foretinib] (partner 0.25 µM) and print it.
# output 1.42

# input Retrieve relative viability measured for CC1(C)CCC(c2ccc(Cl)cc2)=C(CN2CCN(c3ccc(C(=O)NS(=O)(=O)c4ccc(N[C@H](CCN5CCOCC5)CSc5ccccc5)c(S(=O)(=O)C(F)(F)F)c4)cc3)CC2)C1 [Navitoclax] + CC(=O)Nc1cccc(-n2c(=O)n(C3CC3)c(=O)c3c(Nc4ccc(I)cc4F)n(C)c(=O)c(C)c32)c1 [Trametinib] (partner 0.02 µM) and print it.
# output 0.296

# input Retrieve relative viability measured for CC1(C)CCC(c2ccc(Cl)cc2)=C(CN2CCN(c3ccc(C(=O)NS(=O)(=O)c4ccc(N[C@H](CCN5CCOCC5)CSc5ccccc5)c(S(=O)(=O)C(F)(F)F)c4)cc3)CC2)C1 [Navitoclax] + NC(=O)Nc1cc(-c2cccc(F)c2)sc1C(=O)N[C@H]1CCCNC1 [AZD7762] (partner 0.2 µM) and print it.
# output 0.809

# input Retrieve relative viability measured for CC1(C)CCC(c2ccc(Cl)cc2)=C(CN2CCN(c3ccc(C(=O)NS(=O)(=O)c4ccc(N[C@H](CCN5CCOCC5)CSc5ccccc5)c(S(=O)(=O)C(F)(F)F)c4)cc3)CC2)C1 [Navitoclax] + Nc1ncn([C@H]2C[C@H](O)[C@@H](CO)O2)c(=O)n1 [Decitabine] (partner 2 µM) and print it.
# output 0.668
